Listed below: EC50 values for each entry.
Molecular target: T1, ROR1 naturally expressed on human tumor cell lines (A549, Jeko-1, SW620, PA-1) (human, UniProt Q01973 30-937)
T1 construct: whole, on cells; also called cells expressing ROR1
T1 sequence (Q01973 30-937): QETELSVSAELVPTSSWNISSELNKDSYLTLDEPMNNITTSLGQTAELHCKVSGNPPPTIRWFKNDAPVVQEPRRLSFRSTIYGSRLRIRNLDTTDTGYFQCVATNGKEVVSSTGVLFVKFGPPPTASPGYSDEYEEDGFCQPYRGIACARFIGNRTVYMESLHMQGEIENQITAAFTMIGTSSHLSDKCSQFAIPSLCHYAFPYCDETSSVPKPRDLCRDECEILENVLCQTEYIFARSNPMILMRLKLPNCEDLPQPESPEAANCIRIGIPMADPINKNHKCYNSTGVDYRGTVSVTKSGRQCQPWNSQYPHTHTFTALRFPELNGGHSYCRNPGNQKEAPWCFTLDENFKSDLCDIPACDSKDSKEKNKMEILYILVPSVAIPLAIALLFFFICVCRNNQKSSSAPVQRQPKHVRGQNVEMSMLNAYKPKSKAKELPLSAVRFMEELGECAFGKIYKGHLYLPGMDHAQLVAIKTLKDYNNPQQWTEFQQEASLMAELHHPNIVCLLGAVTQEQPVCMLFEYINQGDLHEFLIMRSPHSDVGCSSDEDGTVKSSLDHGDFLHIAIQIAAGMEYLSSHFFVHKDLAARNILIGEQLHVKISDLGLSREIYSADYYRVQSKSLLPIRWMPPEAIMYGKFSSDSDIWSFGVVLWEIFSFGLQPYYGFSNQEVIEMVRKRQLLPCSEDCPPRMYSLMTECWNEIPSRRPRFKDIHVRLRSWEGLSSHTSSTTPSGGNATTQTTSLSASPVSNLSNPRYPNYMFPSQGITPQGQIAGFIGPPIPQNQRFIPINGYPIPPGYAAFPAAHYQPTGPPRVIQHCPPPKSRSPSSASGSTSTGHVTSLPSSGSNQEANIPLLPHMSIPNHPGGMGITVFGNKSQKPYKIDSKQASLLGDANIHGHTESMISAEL
Assay: FACS on PA-1 cells naturally expressing ROR1
Enter your answer as a number in nM; do not include the unit.

Illustrative cases are given below, each with its answer.
Binder	EC50, nM
hz135A2B10-1.1 (antibody, human IgG1, kappa, V domains shown, Humanized, human IgG1/kappa) VH: QVQLVESGGGLVQPGGSLRLSCAASGFAFSTYGMAWVRQAPGKGLEWVASIHKGGFSTYYPDNVKGRFTISRDNAKNSLYLQMNSLRAEDTAVYYCARHDWDGAMDYWGQGTLVTVSS VL: DIQMTQSPSSLSASVGDRVTITCKASQDINSYLNWYQQKPGKAPKTLIYRANRLVDGVPSRFSGSGSGQDYTLTISSLQPEDFATYYCLQFDEFPYTFGQGTKVEIKR	0.166
hz135A2B10-1.2 (antibody, human IgG1, kappa, V domains shown, Humanized, human IgG1/kappa) VH: QVQLVESGGGLVQPGGSLRLSCAASGFAFSTYGMAWVRQAPGKGLEWVASIHKGGFSTYYPDNVKGRFTISRDNDKNSLYLQMNSLRAEDTAVYYCIRHDWDGAMDYWGQGTLVTVSS VL: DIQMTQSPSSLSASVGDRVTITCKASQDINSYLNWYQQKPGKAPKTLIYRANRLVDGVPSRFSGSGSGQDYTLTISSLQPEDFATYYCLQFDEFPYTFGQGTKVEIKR	0.217
UC-961 (antibody, V domains shown) VH: QVQLQESGPGLVKPSQTLSLTCTVSGYAFTAYNIHWVRQAPGQGLEWMGSFDPYDGGSSYNQKFKDRLTISKDTSKNQVVLTMTNMDPVDTATYYCARGWYYFDYWGHGTLVTVSS VL: DIVMTQTPLSLPVTPGEPASISCRASKSISKYLAWYQQKPGQAPRLLIYSGSTLQSGIPPRFSGSGYGTDFTLTINNIESEDAAYYFCQQHDESPYTFGEGTKVEIK	0.127

With those in mind, consider the next binder.
Which EC50 value belongs to hz135A2B10-1.3 (antibody, human IgG1, kappa, V domains shown, Humanized, human IgG1/kappa) VH: QVQLVESGGGLVQPGGSLRLSCAASGFAFSTYGMAWVRQAPGKRLEWVASIHKGGFSTYYPDNVKGRFTISRDNDKNSLYLQMNSLRAEDTAVYYCIRHDWDGAMDYWGQGTLVTVSS VL: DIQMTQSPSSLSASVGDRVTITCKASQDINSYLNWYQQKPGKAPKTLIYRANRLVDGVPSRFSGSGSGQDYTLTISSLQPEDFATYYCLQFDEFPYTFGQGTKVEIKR ?
0.192
